Ref: paper PMC5830921

TARGET OR TEST SYSTEM: the molecule itself
METHOD SUMMARY: AUC; sedimentation equilibrium, 28.28-89.23 μM, 150 mM NaCl, 20°C, 12,000, 25,000 and 43,000 rpm; isodesmic model, single KD for each association step
pKd: −log10 of the molar value.

PROTEIN	pKd
TDP-43 N-terminal domain (NTD), wild-type, residues 1-80 (domain or fragment, three additional N-terminal residues left by the cloning strategy and TEV cleavage; TDP-43 N-terminal domain, residues 1-80 (codon of N81 changed to a stop codon); 15N-labelled or natural abundance, depending on the NMR experiment; also called TDP-43 NTD; NTD WT; source: E. coli BL21 Star DE3, purified (Histrap, TEV cleavage, SEC); not shown: Thioredoxin, N-terminal, cleaved; His6, N-terminal, …) GHMMSEYIRVTEDENDEPIEIPSEDDGTVLLSTVTAQFPGACGLRYRNPVSQCMRGVRLVEGILHAPDAGWGNLVYVVNYPKD	~4.40
